These measurements were taken from paper PMC5524698.

# studySystem: EPAC2 (Mus musculus, UniProt Q9EQZ6)
# Construct: HEK293 cell lines stably expressing Flag-tagged Rap1A and full-length EPAC1 or EPAC2 are proposed
# Sequence (Q9EQZ6 whole entry): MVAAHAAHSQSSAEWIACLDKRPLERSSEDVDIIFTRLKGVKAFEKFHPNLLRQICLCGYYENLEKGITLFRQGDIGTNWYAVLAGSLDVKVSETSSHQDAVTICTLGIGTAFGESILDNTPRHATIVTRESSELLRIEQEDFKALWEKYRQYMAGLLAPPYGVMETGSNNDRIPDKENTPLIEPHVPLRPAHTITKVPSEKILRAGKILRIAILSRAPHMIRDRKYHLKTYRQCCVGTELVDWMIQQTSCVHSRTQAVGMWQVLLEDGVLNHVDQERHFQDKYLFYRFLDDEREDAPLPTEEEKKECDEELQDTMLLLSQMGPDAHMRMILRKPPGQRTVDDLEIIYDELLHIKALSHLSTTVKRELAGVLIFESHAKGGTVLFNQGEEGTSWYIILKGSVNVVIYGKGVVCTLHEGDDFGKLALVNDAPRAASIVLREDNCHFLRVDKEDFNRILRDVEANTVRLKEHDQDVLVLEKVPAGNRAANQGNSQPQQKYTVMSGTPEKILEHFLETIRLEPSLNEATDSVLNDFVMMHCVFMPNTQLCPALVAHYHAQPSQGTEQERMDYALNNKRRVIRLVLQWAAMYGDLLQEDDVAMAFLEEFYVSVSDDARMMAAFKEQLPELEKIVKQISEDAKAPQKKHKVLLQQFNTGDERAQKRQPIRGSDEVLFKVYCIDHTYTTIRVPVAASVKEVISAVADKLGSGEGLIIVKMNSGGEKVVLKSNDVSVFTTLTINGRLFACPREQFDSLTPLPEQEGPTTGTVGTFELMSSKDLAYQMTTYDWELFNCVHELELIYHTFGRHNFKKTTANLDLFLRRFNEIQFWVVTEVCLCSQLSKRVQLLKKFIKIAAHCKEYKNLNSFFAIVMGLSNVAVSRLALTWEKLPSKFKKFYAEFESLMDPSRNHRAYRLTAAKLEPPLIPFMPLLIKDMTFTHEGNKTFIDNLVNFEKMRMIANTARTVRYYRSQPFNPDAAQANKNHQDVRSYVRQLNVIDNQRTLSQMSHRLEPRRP
# procedureSummary: Cellular Rap1 assay (ELISA for Rap1-GTP) in HEK293/mEPAC2/Flag-Rap1 cells
# measurementConditions: stimulated by 1 µM Forskolin, 30 min pretreatment, read-out: apparent IC50, inhibition of cellular EPAC2 activity
measuredQuantity: IC50 (µM)
The reply should be a number in µM, with the unit left off.

Summary line: CC(C)(C)c1cc(C(=O)/C(C#N)=N/Nc2cc(Cl)c(Cl)c(Cl)c2)no1 , EPAC2 (Mus musculus, UniProt Q9EQZ6), reported IC50 = 9.6
